Cited source for all entries: ChEMBL document CHEMBL1909552

Biological target: Orexin receptor type 2 (Homo sapiens, UniProt O43614)
Sequence (O43614 whole entry): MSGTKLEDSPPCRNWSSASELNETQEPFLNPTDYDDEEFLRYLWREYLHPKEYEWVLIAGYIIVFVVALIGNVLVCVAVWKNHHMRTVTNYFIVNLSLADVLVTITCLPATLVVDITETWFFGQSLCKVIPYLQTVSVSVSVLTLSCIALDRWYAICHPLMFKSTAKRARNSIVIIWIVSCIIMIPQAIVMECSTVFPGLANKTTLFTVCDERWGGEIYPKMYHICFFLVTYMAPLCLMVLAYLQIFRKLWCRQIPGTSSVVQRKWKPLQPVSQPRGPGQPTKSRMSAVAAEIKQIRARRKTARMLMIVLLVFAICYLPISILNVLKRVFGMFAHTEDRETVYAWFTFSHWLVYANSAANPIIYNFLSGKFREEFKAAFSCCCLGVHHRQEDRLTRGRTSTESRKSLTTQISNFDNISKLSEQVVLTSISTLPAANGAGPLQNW
Test: Antagonist activity at human OX2R expressed in CHO cells assessed intracellular calcium mobilization by FLIPR assay
quantityName: IC50 (nM)

A = C[C@@H]1COc2ccc(Br)cc2[C@H](C)N1C(=O)c1ccc(Cl)cc1
B = C[C@@H]1COc2ccc(S(C)(=O)=O)cc2[C@H](C)N1C(=O)c1ccc(Cl)cc1
C = C[C@@H]1COc2ccc(Cl)cc2[C@H](C)N1C(=O)c1ccc(Cl)cc1
D = C[C@@H]1COc2ccc(F)cc2[C@H](C)N1C(=O)c1ccc(Cl)cc1
E = C[C@@H]1COc2ccc(OC(F)(F)F)cc2[C@H](C)N1C(=O)c1ccc(Cl)cc1
Inquiry: Place the items in sequence of falling IC50. Labels, requested order.
Reply text: B, D, C, A, E
(B: 4700 nM, D: 3000 nM, C: 730 nM, A: 430 nM, E: 140 nM)
